target.or.system: FLT3 (Homo sapiens)
Construct: made in house
Sequence (P36888 27-993): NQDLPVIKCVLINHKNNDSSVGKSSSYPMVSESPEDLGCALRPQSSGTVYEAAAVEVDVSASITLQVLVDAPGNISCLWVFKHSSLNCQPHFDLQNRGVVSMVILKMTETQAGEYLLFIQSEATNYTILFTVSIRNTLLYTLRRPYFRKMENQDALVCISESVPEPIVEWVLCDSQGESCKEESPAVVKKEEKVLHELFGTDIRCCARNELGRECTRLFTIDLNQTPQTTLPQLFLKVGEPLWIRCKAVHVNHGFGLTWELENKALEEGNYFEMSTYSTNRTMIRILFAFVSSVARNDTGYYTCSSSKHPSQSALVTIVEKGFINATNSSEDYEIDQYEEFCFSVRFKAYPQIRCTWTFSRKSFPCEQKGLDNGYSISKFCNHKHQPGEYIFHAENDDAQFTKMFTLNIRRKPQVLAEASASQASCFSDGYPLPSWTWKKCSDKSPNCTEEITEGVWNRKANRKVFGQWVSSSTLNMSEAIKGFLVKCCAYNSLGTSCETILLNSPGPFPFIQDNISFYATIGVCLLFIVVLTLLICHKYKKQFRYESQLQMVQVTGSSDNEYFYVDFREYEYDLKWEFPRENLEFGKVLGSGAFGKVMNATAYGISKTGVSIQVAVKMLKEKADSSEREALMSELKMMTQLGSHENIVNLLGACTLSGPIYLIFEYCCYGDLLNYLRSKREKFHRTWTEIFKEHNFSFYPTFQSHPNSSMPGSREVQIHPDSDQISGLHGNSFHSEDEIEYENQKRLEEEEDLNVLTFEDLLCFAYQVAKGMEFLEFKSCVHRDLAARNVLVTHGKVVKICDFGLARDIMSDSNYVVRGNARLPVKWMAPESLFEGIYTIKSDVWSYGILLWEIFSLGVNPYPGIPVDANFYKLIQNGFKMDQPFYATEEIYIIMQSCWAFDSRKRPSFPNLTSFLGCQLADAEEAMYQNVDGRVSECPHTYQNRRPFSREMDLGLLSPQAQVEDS
test: Competition binding assay, FLT3 Kd
experimental.conditions: competition binding
test.readout: Kd

Hello, I am looking for reported Kd with FLT3 (Homo sapiens) for O[C@@H]1CCCC[C@H]1Nc1nc2ccc(Cn3cnc4cc(-n5cccn5)ccc43)cc2s1 . Could you help?
200 to 1000 nM

What do you get for O[C@@H]1CCCC[C@H]1Nc1nc2ccc(Cn3cnc4cc(-c5cc[nH]n5)ccc43)cc2s1 ?
≤ 200 nM

What do you get for CC(C)(O)C#Cc1cnc2c(c1)ncn2Cc1ccc2nc(N[C@@H]3CCCC[C@H]3O)sc2c1 ?
≤ 200 nM

What do you get for O[C@@H]1CCCC[C@H]1Nc1nc2c(Br)cc(Cn3cnc4cccnc43)cc2s1 ?
200 to 1000 nM

What do you get for N#Cc1cc(F)c2c(c1)ncn2Cc1ccc2nc(N[C@@H]3CCCC[C@H]3O)sc2c1 ?
200 to 1000 nM

What do you get for O[C@@H]1[C@H](O)CCC[C@H]1Nc1nc2ccc(Cn3cnc4cc(N5CCOCC5)ccc43)cc2s1 ?
200 to 1000 nM

Lab note: each compound below needs its Kd filled in.
1. COc1ccc2ncc(Cc3ccc4nc(N[C@@H]5CCCC[C@H]5O)sc4c3)n2c1
2. COc1ccc2c(c1)ncn2Cc1ccc2nc(N[C@@H]3CCCC[C@H]3O)oc2c1

1. > 5000 nM
2. 200 to 1000 nM

* * *

target.or.system: CSF1R (Homo sapiens)
test: HEK293 CSF1R phosphorylation MSD assay
Type: cell-based
Parameters: expressed in transfected cells; host or cells: HEK293
experimental.conditions: HEK293 cells, M-CSF stimulated CSF1R phosphorylation, MSD; read-out: HEK293 pCSF1R M-CSF MSD:IC50
pIC50: −log10 of the molar value. Counter-ions that a name gives are not always drawn.
Kindly state pIC50 for each of the entries shown.

Lab note: each molecule below needs its pIC50 filled in.
1. O[C@@H]1CCCC[C@H]1Nc1nc2ccc(Cc3cnc4ccc(Cl)nn34)cc2s1
2. COc1ccc2ncc(Cc3ccc4nc(N[C@@H]5CCCC[C@H]5O)sc4c3)n2n1
3. O[C@@H]1CCCC[C@H]1Nc1nc2ccc(Cn3cnc4cncnc43)cc2o1
4. CC(=O)c1ccc2c(c1)ncn2Cc1ccc2nc(N[C@@H]3CCCC[C@H]3O)sc2c1
5. N#Cc1ccn2c(Cc3ccc4nc(N[C@@H]5CCCC[C@H]5O)sc4c3)cnc2c1
6. C=Cc1ccc2c(c1)ncn2Cc1ccc2nc(N[C@@H]3CCC[C@@H](O)[C@H]3O)sc2c1
7. OCCOc1ccn2c(Cc3ccc4nc(N[C@@H]5CCCC[C@H]5O)sc4c3)cnc2c1
8. O[C@@H]1CCCC[C@H]1Nc1nc2ccc(Cc3cnc4ccc(N5CCOCC5)nn34)cc2s1

≥ 7.30
6.70 to 7.30
< 6.30
≥ 7.30
< 6.30
≥ 7.30
6.70 to 7.30
≥ 7.30

Lab note: each molecule below needs its pIC50 filled in.
1. O=C(c1ccn2c(Cc3ccc4nc(N[C@@H]5CCCC[C@H]5O)sc4c3)cnc2c1)N1CCCC1
2. O[C@H]1[C@@H](O)CCC[C@H]1Nc1nc2ccc(Cn3cnc4cc(F)cnc43)cc2s1
3. OC[C@@H]1CCC[C@@H](Nc2nc3ccc(Cn4cnc5cc(F)cnc54)cc3s2)C1
4. N#Cc1cc2ncn(Cc3ccc4nc(N[C@@H]5CCCC[C@H]5O)oc4c3)c2cc1Cl
5. N#Cc1ccc2c(c1)ncn2Cc1ccc2nc(N[C@@H]3CCCC[C@H]3O)oc2c1
6. O[C@@H]1[C@H](O)CCC[C@H]1Nc1nc2ccc(Cn3cnc4cc(OC5COC5)ccc43)cc2s1
7. CNC(=O)c1ccc2c(c1)ncn2Cc1ccc2nc(N[C@@H]3CCCC[C@H]3O)sc2c1
8. Nc1nccn(Cc2ccc3nc(N[C@@H]4CCCC[C@H]4O)sc3c2)c1=O [Example 220, acetate salt]

1: 6.70 to 7.30; 2: < 6.30; 3: 6.30 to 6.70; 4: 6.30 to 6.70; 5: < 6.30; 6: ≥ 7.30; 7: 6.70 to 7.30; 8: < 6.30

* * *

Kindly state Kd for each of the entries shown.
target.or.system: CSF1R (Homo sapiens)
test: Competition binding assay, CSF1R Kd
Parameters: made in house

Here are 5 compounds together with their reported answers.
// Kd lookup, key: COc1cc2c(cc1Br)ncn2Cc1ccc2nc(N[C@@H]3c4ccccc4C[C@H]3O)sc2c1
0.005 to 0.02 µM

What do you get for O[C@@H]1Cc2ccccc2[C@H]1Nc1nc2ccc(Cn3cnc4cccnc43)cc2o1 ?
≤ 0.005 µM

What do you get for CC(=O)c1ccc2ncn(Cc3ccc4nc(N[C@@H]5CCCC[C@H]5O)sc4c3)c2n1 ?
≤ 0.005 µM

What do you get for O[C@@H]1Cc2ccccc2[C@H]1Nc1nc2ccc(Cn3cnc4ccc(Br)nc43)cc2s1 ?
0.005 to 0.02 µM

What do you get for O[C@@H]1CCCC[C@H]1Nc1nc2ccc(Cn3cnc4cc(Cl)cnc43)cc2s1 ?
0.005 to 0.02 µM

Lab note: each compound below needs its Kd filled in.
1. COc1cc2ncn(Cc3ccc4nc(N(C)C5CCCCC5)sc4c3)c2cc1OC
2. N=C(NO)c1cnc2c(c1)ncn2Cc1ccc2nc(N[C@@H]3CCCC[C@H]3O)sc2c1
3. O[C@@H]1CCCC[C@H]1Nc1nc2ccc(Cc3cnc4ccccn34)cc2s1
4. COc1cc2ncn(Cc3ccc4nc(NCc5ccccc5)sc4c3)c2cc1OC
5. COc1cc2c(cc1Br)ncn2Cc1ccc2nc(N[C@@H]3CCCC[C@H]3O)sc2c1

0.02 to 0.05 µM
0.005 to 0.02 µM
0.02 to 0.05 µM
0.005 to 0.02 µM
0.005 to 0.02 µM

Lab note: each compound below needs its Kd filled in.
1. O[C@@H]1CCCC[C@H]1Nc1nc2ccc(Cn3cnc4cc(Br)cnc43)cc2o1
2. OC[C@@H]1CCCC[C@H]1Nc1nc2ccc(Cn3cnc4cccnc43)cc2s1
3. O[C@@H]1Cc2ccccc2[C@H]1Nc1nc2ccc(Cn3cnc4cncnc43)cc2s1
4. OCC1(CNc2nc3ccc(Cn4cnc5cccnc54)cc3s2)CCCCC1
5. COc1cc2c(cc1C#N)ncn2Cc1ccc2nc(N[C@@H]3CCCC[C@H]3O)sc2c1
6. COc1cc2ncn(Cc3ccc4nc(NC5CCN(C(C)=O)CC5)sc4c3)c2cc1OC
7. Cn1cc(-c2cn(Cc3ccc4nc(N[C@@H]5CCCC[C@H]5O)oc4c3)cn2)cn1

0.005 to 0.02 µM
0.005 to 0.02 µM
≤ 0.005 µM
≤ 0.005 µM
0.005 to 0.02 µM
> 0.05 µM
0.005 to 0.02 µM

* * *

target.or.system: KIT (Homo sapiens)
Construct: made in house
Sequence (P10721 26-976): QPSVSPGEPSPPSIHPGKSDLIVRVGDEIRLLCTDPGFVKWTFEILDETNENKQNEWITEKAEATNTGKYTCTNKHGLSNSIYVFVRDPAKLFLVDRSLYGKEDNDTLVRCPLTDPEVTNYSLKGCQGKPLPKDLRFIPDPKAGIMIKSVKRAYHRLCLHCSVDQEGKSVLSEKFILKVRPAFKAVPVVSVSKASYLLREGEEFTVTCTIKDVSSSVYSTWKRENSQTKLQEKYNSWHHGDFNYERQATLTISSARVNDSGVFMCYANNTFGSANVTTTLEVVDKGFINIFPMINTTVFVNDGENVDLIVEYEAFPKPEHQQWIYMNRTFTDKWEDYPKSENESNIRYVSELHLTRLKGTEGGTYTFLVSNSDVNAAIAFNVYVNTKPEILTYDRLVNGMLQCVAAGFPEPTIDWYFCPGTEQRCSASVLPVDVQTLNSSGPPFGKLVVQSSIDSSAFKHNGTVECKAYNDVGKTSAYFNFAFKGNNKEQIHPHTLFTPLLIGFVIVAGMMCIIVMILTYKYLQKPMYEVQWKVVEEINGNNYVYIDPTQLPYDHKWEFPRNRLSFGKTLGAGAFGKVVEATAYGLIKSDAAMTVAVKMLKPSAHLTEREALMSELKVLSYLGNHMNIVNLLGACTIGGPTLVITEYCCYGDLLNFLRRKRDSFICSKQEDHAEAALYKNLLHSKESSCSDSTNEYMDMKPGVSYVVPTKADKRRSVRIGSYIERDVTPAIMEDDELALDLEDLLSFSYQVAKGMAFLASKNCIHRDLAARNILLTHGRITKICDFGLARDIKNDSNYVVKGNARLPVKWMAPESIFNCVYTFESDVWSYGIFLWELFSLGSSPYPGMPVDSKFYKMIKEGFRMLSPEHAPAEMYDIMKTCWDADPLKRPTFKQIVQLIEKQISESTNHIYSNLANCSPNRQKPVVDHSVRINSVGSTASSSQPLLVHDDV
test: Competition binding assay, KIT Kd
experimental.conditions: competition binding
pKd: −log10 of the molar value.
Kindly state pKd for each of the entries shown.

Here are 5 compounds together with their reported answers.
Hello, I am looking for reported pKd with KIT (Homo sapiens) for CNC(=O)c1ccc2c(c1)ncn2Cc1ccc2nc(N[C@@H]3CCCC[C@H]3O)sc2c1 . Could you help?
6.30 to 7.00

What do you get for CN1CCN(c2ccc3ncc(Cc4ccc5nc(N[C@@H]6CCCC[C@H]6O)sc5c4)n3n2)CC1 ?
5.70 to 6.30

What do you get for OCCOc1ccn2c(Cc3ccc4nc(N[C@@H]5CCCC[C@H]5O)sc4c3)cnc2c1 ?
5.70 to 6.30

What do you get for N#Cc1cc2ncn(Cc3ccc4nc(N[C@@H]5CCCC[C@H]5O)sc4c3)c2nc1C#N ?
6.30 to 7.00

What do you get for OC1CCN(c2ccn3c(Cc4ccc5nc(N[C@@H]6CCCC[C@H]6O)sc5c4)cnc3c2)CC1 ?
< 5.70

Lab note: each compound below needs its pKd filled in.
1. O[C@@H]1CCCC[C@H]1Nc1nc2ccc(Cc3cnc4cc(N5CCOCC5)ccn34)cc2s1
2. O[C@@H]1CCCC[C@H]1Nc1nc2cc(F)c(Cn3cnc4cccnc43)cc2s1
3. CC(=O)c1ccn2c(Cc3ccc4nc(N[C@@H]5CCCC[C@H]5O)sc4c3)cnc2c1

1: < 5.70; 2: 5.70 to 6.30; 3: 5.70 to 6.30

* * *

target.or.system: CSF1R (Homo sapiens, UniProt P07333)
Sequence (P07333 20-972): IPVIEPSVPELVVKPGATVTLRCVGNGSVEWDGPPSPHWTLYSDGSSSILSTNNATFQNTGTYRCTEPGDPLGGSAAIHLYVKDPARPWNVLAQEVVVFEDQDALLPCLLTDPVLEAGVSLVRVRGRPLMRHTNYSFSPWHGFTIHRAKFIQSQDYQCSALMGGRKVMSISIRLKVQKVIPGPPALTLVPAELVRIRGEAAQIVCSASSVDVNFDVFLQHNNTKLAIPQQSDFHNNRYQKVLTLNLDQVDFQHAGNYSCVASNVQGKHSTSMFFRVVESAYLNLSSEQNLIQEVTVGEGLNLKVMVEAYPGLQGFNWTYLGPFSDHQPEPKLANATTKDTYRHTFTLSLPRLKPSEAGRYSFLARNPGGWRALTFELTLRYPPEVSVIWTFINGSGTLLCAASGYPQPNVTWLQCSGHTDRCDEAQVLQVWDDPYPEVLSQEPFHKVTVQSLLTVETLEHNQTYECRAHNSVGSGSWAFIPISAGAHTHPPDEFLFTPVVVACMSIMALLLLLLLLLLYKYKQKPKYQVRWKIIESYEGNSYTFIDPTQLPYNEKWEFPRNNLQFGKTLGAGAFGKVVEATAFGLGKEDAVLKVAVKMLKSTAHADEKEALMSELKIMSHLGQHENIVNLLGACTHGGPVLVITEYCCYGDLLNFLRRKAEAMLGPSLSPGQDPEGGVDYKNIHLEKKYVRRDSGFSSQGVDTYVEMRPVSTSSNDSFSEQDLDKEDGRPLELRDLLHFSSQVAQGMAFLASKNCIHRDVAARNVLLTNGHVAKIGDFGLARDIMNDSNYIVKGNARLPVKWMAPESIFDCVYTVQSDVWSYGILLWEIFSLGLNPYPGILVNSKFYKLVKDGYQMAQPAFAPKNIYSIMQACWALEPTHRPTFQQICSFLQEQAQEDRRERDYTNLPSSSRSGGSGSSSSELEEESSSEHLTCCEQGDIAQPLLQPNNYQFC
test: Competition binding assay, CSF1R Kd
Design: made in house
pKd: −log10 of the molar value.
test.readout: pKd

// pKd lookup, key: COc1cc2ncn(Cc3ccc4nc(NC[C@H]5CCCO5)sc4c3)c2cc1OC [Example 8]
7.70 to 8.30

What do you get for O=C1CCCC[C@H]1Nc1nc2ccc(Cn3cnc4cccnc43)cc2s1 [Example 54] ?
7.30 to 7.70

What do you get for CCOc1ccccc1Nc1nc2ccc(Cn3cnc4cc(OC)c(OC)cc43)cc2s1 [Example 27] ?
7.70 to 8.30

What do you get for O[C@@H]1CCCC[C@H]1Nc1nc2ccc(Cn3cnc4ccc(Br)nc43)cc2s1 [Example 78] ?
7.70 to 8.30

What do you get for COc1ccc2ncn(Cc3ccc4nc(N[C@@H]5CCCC[C@H]5O)sc4c3)c2c1 [Example 67] ?
7.70 to 8.30

What do you get for COc1cc2ncn(Cc3ccc4nc(NC5CCCCC5)sc4c3)c2cc1OC [Example 18] ?
≥ 8.30

What do you get for O[C@@H]1CCCC[C@H]1Nc1nc2ccc(Cn3cnc4cc(N5CCOCC5)cnc43)cc2s1 [Example 97] ?
7.70 to 8.30

What do you get for ON=C1CCCC[C@H]1Nc1nc2ccc(Cn3cnc4cccnc43)cc2s1 [Example 58] ?
≥ 8.30

What do you get for O[C@H]1CCCCC1Nc1nc2ccc(Cn3cnc4ccccc43)cc2s1 (stereo in doubt) [Example 7] ?
7.70 to 8.30

What do you get for CC(=O)c1cnc2c(c1)ncn2Cc1ccc2nc(N[C@@H]3CCCC[C@H]3O)sc2c1 [Example 73] ?
7.70 to 8.30

Lab note: each compound below needs its pKd filled in.
1. CC(=O)NCc1cnc2c(c1)ncn2Cc1ccc2nc(N[C@@H]3CCCC[C@H]3O)sc2c1 [Example 99]
2. O[C@@H]1CCCC[C@H]1Nc1nc2ccc(Cc3c[nH]c4ncccc34)cc2s1 [Example 17]

1. < 7.30
2. 7.70 to 8.30

Lab note: each compound below needs its pKd filled in.
1. C=Cc1cnc2c(c1)ncn2Cc1ccc2nc(N[C@@H]3CCCC[C@H]3O)sc2c1 [Example 98]
2. COc1cc2ncn(Cc3ccc4nc(N[C@@H]5CCCC[C@H]5O)sc4c3)c2cc1Br [Example 47]
3. O[C@@H]1CCCC[C@H]1Nc1nc2ccc(Cn3cnc4cc(-c5cccnc5)cnc43)cc2s1 [Example 40]

["7.70 to 8.30", "7.70 to 8.30", "≥ 8.30"]

Lab note: each compound below needs its pKd filled in.
1. O[C@@H]1CCCC[C@H]1Nc1nc2ccc(Cn3cnc4cc(Br)cnc43)cc2s1 [Example 29]
2. COc1cc2ncn(Cc3ccc4nc(N[C@@H]5c6ccccc6C[C@@H]5O)sc4c3)c2cc1OC [Example 10]

1: 7.70 to 8.30; 2: 7.70 to 8.30

Lab note: each compound below needs its pKd filled in.
1. O[C@@H]1CCCC[C@H]1Nc1nc2ccc(Cn3cnc4ccccc43)cc2s1 [Example 6]
2. O[C@@H]1CCCC[C@H]1Nc1nc2ccc(Cn3cnc4cc(F)cnc43)cc2s1 [Example 70]
3. CCc1cnc2c(c1)ncn2Cc1ccc2nc(N[C@@H]3CCCC[C@H]3O)sc2c1 [Example 102]
4. O[C@@H]1CCCC[C@H]1Nc1nc2ccc(Cn3cnc4ncccc43)cc2s1 [Example 5]
5. O[C@@H]1CCCC[C@H]1Nc1nc2ccc(Cn3cnc4cnccc43)cc2s1 [Example 72]
6. O[C@@H]1CCCC[C@H]1Nc1nc2ccc(Cn3cnc4ccncc43)cc2s1 [Example 71]

7.70 to 8.30
≥ 8.30
7.70 to 8.30
< 7.30
7.70 to 8.30
7.70 to 8.30

Lab note: each compound below needs its pKd filled in.
1. COc1cc2ncn(Cc3ccc4nc(N[C@@H]5CCCC[C@H]5O)sc4c3)c2cc1-c1cnn(C)c1 [Example 52]
2. COc1cc2ncn(Cc3ccc4nc(NCc5ccccn5)sc4c3)c2cc1OC [Example 9]
3. Cn1cc(-c2nccn(Cc3ccc4nc(N[C@@H]5CCCC[C@H]5O)sc4c3)c2=O)cn1 [Example 103]
4. NCc1cnc2c(c1)ncn2Cc1ccc2nc(N[C@@H]3CCCC[C@H]3O)sc2c1 [Example 91]
5. COc1cc2ncn(Cc3ccc4nc(Nc5ccccc5O)sc4c3)c2cc1OC [Example 31]
6. CS(=O)(=O)c1cnc2c(c1)ncn2Cc1ccc2nc(N[C@@H]3CCCC[C@H]3O)sc2c1 [Example 74]

1: ≥ 8.30; 2: 7.30 to 7.70; 3: 7.70 to 8.30; 4: < 7.30; 5: ≥ 8.30; 6: 7.70 to 8.30

Lab note: each compound below needs its pKd filled in.
1. CNC(=O)c1cnc2c(c1)ncn2Cc1ccc2nc(N[C@@H]3CCCC[C@H]3O)sc2c1 [Example 89]
2. OC[C@@H](Nc1nc2ccc(Cn3cnc4cccnc43)cc2s1)C1CCCCC1 [Example 63]
3. Nc1nc2cccnc2n1Cc1ccc2nc(N[C@@H]3CCCC[C@H]3O)sc2c1 [Example 26, acetic acid]
4. COc1cc2ncn(Cc3ccc4nc(N[C@@H]5CCCC[C@H]5O)oc4c3)c2cc1OC [Example 34]
5. COc1ccc2c(c1)ncn2Cc1ccc2nc(N[C@@H]3CCCC[C@H]3O)sc2c1 [Example 68]

7.70 to 8.30
7.70 to 8.30
7.70 to 8.30
7.70 to 8.30
7.70 to 8.30
